Kindly state DC50 for each of the entries shown.
# study target: HiBit-BRG1 fusion protein (Homo sapiens, UniProt P51532)
# Construct: expressed in transfected cells
# Sequence (P51532 whole entry, the tested form may be a part): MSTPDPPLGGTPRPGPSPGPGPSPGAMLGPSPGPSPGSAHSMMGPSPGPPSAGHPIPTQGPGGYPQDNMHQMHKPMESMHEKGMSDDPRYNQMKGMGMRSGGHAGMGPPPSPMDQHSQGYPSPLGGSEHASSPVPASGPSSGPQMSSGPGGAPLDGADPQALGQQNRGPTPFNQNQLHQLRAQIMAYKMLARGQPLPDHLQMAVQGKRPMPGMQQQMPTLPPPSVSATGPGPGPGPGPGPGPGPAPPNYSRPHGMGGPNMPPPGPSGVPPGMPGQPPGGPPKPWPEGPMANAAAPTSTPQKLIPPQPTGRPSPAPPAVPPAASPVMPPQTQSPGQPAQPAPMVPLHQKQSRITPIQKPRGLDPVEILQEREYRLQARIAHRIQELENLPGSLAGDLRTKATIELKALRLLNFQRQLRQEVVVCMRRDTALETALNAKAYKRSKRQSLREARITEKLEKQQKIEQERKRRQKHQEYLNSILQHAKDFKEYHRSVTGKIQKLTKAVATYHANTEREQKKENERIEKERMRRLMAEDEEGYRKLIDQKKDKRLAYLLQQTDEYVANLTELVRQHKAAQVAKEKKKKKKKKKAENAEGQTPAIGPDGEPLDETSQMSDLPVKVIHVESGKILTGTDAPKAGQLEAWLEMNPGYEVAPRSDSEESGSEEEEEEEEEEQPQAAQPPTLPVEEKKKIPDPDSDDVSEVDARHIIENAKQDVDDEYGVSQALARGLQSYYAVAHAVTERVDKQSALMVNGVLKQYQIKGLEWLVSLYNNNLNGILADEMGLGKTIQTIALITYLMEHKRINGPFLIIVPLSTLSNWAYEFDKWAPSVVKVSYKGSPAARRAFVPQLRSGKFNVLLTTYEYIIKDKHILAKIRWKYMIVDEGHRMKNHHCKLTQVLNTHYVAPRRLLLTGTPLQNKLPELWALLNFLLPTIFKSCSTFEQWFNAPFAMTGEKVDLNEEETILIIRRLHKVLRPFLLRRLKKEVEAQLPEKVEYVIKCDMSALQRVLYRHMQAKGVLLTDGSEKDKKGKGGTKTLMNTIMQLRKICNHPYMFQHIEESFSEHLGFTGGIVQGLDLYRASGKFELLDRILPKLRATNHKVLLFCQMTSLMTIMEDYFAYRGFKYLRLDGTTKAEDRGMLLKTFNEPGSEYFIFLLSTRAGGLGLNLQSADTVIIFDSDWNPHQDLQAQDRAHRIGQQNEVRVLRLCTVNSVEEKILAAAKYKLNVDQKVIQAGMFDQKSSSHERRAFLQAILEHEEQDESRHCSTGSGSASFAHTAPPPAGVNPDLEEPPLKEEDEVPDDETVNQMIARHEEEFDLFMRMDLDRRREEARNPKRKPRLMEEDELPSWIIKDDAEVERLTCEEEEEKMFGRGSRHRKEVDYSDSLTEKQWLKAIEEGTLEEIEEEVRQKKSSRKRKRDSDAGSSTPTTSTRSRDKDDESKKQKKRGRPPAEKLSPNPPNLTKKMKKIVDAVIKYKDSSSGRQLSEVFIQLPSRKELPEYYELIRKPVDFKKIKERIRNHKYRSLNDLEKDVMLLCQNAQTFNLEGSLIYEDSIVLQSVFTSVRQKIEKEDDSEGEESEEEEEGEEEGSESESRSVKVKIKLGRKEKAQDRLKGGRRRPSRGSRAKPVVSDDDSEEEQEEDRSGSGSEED
# assay method text: HiBiT-BRG1 cell-based degradation assay (Nano-Glo HiBiT Lytic Detection, 24 h)
# settings: HeLa cells expressing HiBit-BRG1 and LgBit, read-out: BRG1 HiBit Degradation IC50
Counter-ions that a name gives are not always drawn.

## Task Note DC50 for the compound shown: Cc1ncsc1-c1ccc(CNC(=O)[C@@H]2C[C@@H](O)CN2C(=O)[C@@H](NC(=O)CCCCCCCCCNC(=O)CN(C)c2cc(-c3cccc(-c4csc(NC(=O)CNC(=O)c5ccn(S(C)(=O)=O)c5)n4)c3)ccn2)C(C)(C)C)cc1 [Compound 47]
## Result < 0.1 µM

## Task Using known records, supply DC50 for CS(=O)(=O)n1ccc(C(=O)N[C@@H](CCOCCCC(=O)NCCOc2cccc(OCCNc3cccc4c3C(=O)N(C3CCC(=O)NC3=O)C4=O)c2)C(=O)Nc2nc(-c3ccccc3)cs2)c1 (some centres unmarked) [Compound 270]
## Result > 10 µM

## Task Tell us which DC50 value is on record for Cc1ncsc1-c1ccc(CNC(=O)[C@@H]2C[C@@H](O)CN2C(=O)[C@@H](NC(=O)CCCCCCCCCCCCC(=O)NCCCC[C@H](NC(=O)c2ccn(S(C)(=O)=O)c2)C(=O)Nc2nc(-c3ccccc3)cs2)C(C)(C)C)cc1 [Compound 267]
## Result > 10 µM

## Task Could you please provide reported DC50 for Cc1ncsc1-c1ccc(CNC(=O)[C@@H]2C[C@@H](O)CN2C(=O)[C@@H](NC(=O)CCN2CCC(C(=O)NCc3cccc(-c4cccc(-c5csc(NC(=O)CNC(=O)c6ccn(S(C)(=O)=O)c6)n5)c4)c3)CC2)C(C)(C)C)cc1 [Compound 155, formate] ? Thanks!
## Result > 10 µM

## Task Using known records, supply DC50 for CS(=O)(=O)n1ccc(C(=O)NCC(=O)Nc2nc(-c3cccc(-c4ccnc(OCCNC(=O)C5CC5CNC(=O)COc5ccc6c(c5)C(=O)N(C5CCC(=O)NC5=O)C6=O)c4)c3)cs2)c1 (centres unmarked) [Compound 80]
## Result > 10 µM

## Task Fill in reported DC50 for this entry: Cc1ncsc1-c1ccc(CNC(=O)[C@@H]2C[C@@H](O)CN2C(=O)[C@@H](NC(=O)CCC(=O)N2CCN(c3cc(-c4cccc(-c5csc(NC(=O)CNC(=O)c6ccn(S(C)(=O)=O)c6)n5)c4)ccn3)CC2)C(C)(C)C)cc1 [Compound 74]
## Result > 10 µM

## Task Kindly indicate its recorded DC50. Item: CS(=O)(=O)n1ccc(C(=O)NCC(=O)Nc2nc(-c3cccc(-c4ccn(CC(=O)NCCCCCCCCNC(=O)COc5cccc6c5C(=O)N(C5CCC(=O)NC5=O)C6=O)n4)c3)cs2)c1 (centres unmarked) [Compound 5]
## Result > 10 µM

## Task Find the measured DC50 of CS(=O)(=O)n1ccc(C(=O)N[C@@H](CCOCCCC(=O)NCCCCNc2ccc3c(c2)C(=O)N(C2CCC(=O)NC2=O)C3=O)C(=O)Nc2nc(-c3ccccc3)cs2)c1 (some centres unmarked) [Compound 282] and report it.
## Result > 10 µM

## Task Given the compound Cc1ncsc1-c1ccc(CNC(=O)[C@@H]2C[C@@H](O)CN2C(=O)[C@@H](NC(=O)COCCOCC(=O)NCCOc2cc(-c3cccc(-c4csc(NC(=O)CNC(=O)c5ccn(S(C)(=O)=O)c5)n4)c3)ccn2)C(C)(C)C)cc1 [Compound 71] , write its reported DC50.
## Result > 10 µM

## Task Provide only the value of recorded DC50 for CC(C)(C)n1ccc(C(=O)N[C@@H](COCc2ccc(C(=O)NC3CCN(CCOc4ccc5c(c4)C(=O)N(C4CCC(=O)NC4=O)C5=O)CC3)cc2)C(=O)Nc2nc(-c3ccccc3)cs2)c1 (some centres unmarked) [Compound 170]
## Result 0.1 to 1 µM

## Task Item Cc1ncsc1-c1ccc(CNC(=O)[C@@H]2C[C@@H](O)CN2C(=O)[C@@H](NC(=O)COCCOCCNC(=O)c2ccc(COC[C@H](NC(=O)c3ccn(S(C)(=O)=O)c3)C(=O)Nc3nc(-c4ccccc4)cs3)cc2)C(C)(C)C)cc1 [Compound 188] : provide DC50
## Result 1 to 10 µM

## Task Respond only with DC50 recorded for CS(=O)(=O)n1ccc(C(=O)N[C@@H](CCOCCCC(=O)N2CCC3(CC2)CC(Oc2ccc4c(c2)C(=O)N(C2CCC(=O)NC2=O)C4=O)C3)C(=O)Nc2nc(-c3ccccc3)cs2)c1 (some centres unmarked) [Compound 262]
## Result > 10 µM

## Task Determine its reported DC50: CS(=O)(=O)n1ccc(C(=O)N[C@@H](COCCCC(=O)NCCNc2ccc3c(c2)C(=O)N(C2CCC(=O)NC2=O)C3=O)C(=O)Nc2nc(-c3ccccc3)cs2)c1 (some centres unmarked) [Compound 185]
## Result > 10 µM

## Task Look up DC50 of CS(=O)(=O)n1ccc(C(=O)N[C@@H](COCCCC(=O)NCCCCCCNc2ccc3c(c2)C(=O)N(C2CCC(=O)NC2=O)C3=O)C(=O)Nc2nc(-c3ccccc3)cs2)c1 (some centres unmarked) [Compound 230] and report it.
## Result > 10 µM
